Entry source: paper doi:10.1101/2025.11.20.689572v1

target: α1A (Homo sapiens); test: competitive radioligand binding, HEK293 membranes; set-up: gene ADRA1A; full-length receptor; HEK293 cell membranes
Sequence (P35348 whole entry): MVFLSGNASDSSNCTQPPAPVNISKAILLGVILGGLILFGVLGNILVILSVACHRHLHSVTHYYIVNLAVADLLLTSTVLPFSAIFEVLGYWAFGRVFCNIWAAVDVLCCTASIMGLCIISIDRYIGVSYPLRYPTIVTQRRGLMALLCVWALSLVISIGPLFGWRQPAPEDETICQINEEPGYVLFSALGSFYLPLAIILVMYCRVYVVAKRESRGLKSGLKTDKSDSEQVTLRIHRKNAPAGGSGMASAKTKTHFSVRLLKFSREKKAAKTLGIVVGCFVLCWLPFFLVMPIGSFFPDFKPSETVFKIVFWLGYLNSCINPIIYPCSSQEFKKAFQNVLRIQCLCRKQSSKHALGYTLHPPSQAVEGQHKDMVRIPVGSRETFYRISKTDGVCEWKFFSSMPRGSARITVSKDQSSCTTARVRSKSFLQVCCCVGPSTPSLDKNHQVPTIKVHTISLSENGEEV
MEASUREMENT NAME: Ki

Task: Endpoint output: Ki of CCCCCCOc1nsnc1C1=CCCNC1 [N-desmethylxanomeline] . Value?
Output: 282 nM

====

target: UniProt Q9Y5N1; experiment: cell-based; set-up: species or system HEK293; TRUPATH BRET2 G-protein dissociation; antagonist mode against agonist EC80; conditions: Xanomeline, Assay=Gi2; agonist mode
MEASUREMENT NAME: EC50 (µM)
I only need the number, in µM, no unit after it.

Task: EC50 for CCCCCCOc1nsnc1C1=CCCN(C)C1 ?
Output: 10.3

====

Measurement record for 5-HT2B (Homo sapiens); quantity recorded: Ki.
# output: number + unit

>  <TEST SMILES>
CCCCCCOc1nsnc1C1=CCCNC1

>  <EXPERIMENTAL SYSTEM>
5-HT2B (Homo sapiens)
Sequence (P41595 whole entry): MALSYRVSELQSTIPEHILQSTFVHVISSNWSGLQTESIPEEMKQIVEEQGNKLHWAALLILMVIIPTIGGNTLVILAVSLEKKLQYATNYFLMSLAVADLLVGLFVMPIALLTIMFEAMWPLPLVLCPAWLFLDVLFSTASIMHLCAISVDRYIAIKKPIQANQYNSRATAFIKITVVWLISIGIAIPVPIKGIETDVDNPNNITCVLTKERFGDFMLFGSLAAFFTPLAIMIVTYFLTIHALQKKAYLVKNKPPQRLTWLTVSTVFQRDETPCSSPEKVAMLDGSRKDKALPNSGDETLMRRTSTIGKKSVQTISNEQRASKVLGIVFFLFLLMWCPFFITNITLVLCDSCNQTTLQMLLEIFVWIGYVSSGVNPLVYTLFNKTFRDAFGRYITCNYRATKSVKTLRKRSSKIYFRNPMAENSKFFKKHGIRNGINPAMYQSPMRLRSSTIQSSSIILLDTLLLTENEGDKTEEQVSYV

>  <Ki>
15.8 nM

$$$$

Task: Return reported Ki; argument: CCCCCCOc1nsnc1C1=CCCN(C)C1
Output: 39.8 nM

====

target: HTR1A (Homo sapiens)
Sequence (P08908 whole entry): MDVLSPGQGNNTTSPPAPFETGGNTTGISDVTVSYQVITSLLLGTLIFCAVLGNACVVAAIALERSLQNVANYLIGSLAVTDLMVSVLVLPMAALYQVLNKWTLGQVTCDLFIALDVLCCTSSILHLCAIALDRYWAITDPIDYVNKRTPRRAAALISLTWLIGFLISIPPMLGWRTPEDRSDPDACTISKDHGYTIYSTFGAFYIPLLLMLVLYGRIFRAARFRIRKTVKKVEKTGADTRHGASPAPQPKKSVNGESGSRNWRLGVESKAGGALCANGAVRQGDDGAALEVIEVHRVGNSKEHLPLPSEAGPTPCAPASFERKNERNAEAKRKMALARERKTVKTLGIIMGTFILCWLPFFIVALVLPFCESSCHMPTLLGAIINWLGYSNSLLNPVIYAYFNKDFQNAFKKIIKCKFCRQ
MEASUREMENT NAME: pKi
Just the number, please; pKi means minus log10 of the concentration in mol/L.

Task: Given the molecule CCCCCCOc1nsnc1C1=CCCN(C)C1 , what is its reported pKi?
Output: 5.23

====

target: DOR (Homo sapiens); construct: gene OPRD1; assay: biochemical; parameters: species or system HEK293; PDSP competitive radioligand binding, membranes of transfected HEK293 cells, filtration, Ki by Cheng-Prusoff
Sequence (P41143 whole entry): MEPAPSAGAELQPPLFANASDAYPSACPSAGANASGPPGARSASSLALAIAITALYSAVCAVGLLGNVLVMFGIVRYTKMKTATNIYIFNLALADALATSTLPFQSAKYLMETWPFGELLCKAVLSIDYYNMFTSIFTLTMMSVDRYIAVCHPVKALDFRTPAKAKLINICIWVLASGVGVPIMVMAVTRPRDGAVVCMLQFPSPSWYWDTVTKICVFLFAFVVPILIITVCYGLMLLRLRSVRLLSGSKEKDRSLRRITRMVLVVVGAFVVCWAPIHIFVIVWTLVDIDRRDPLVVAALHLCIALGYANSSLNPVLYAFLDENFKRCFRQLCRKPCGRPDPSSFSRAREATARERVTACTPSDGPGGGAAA
pKi: −log10 of the molar value.
MEASUREMENT NAME: pKi

Task: So what does the record say about pKi for CCCCCCOc1nsnc1C1=CCCN(C)C1 ?
Output: < 5.00

====

biological target: CHRM3 (Homo sapiens); assay: cell-based; set-up: species or system HEK293; TRUPATH BRET2 G-protein dissociation; antagonist mode against agonist EC80; settings: Xanomeline, Assay=Gq; agonist mode
Sequence (P20309 whole entry): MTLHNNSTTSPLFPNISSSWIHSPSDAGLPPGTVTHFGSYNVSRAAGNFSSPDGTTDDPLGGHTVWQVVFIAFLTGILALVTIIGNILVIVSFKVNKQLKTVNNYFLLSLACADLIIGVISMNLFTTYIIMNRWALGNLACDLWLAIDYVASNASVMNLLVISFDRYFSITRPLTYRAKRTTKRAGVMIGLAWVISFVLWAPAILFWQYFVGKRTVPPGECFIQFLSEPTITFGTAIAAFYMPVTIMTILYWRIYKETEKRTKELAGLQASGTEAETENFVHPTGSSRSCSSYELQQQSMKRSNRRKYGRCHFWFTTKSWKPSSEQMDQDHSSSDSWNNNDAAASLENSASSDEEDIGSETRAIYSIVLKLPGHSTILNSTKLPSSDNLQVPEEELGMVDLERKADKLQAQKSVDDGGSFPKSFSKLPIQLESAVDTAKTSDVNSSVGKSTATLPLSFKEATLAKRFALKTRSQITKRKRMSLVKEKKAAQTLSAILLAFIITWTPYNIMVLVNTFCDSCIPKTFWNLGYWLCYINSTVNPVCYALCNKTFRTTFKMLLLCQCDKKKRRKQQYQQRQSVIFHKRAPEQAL
MEASUREMENT NAME: pEC50
// scale note: pEC50 = -log10(conc_M); give the bare number

Task: Look at this compound and give its reported pEC50. CCCCCCOc1nsnc1C1=CCCN(C)C1
Output: 7.27

====

target: DRD2 (Homo sapiens, UniProt P14416); experiment: biochemical; parameters: species or system HEK293; PDSP competitive radioligand binding, membranes of transfected HEK293 cells, filtration, Ki by Cheng-Prusoff
Sequence (P14416 whole entry): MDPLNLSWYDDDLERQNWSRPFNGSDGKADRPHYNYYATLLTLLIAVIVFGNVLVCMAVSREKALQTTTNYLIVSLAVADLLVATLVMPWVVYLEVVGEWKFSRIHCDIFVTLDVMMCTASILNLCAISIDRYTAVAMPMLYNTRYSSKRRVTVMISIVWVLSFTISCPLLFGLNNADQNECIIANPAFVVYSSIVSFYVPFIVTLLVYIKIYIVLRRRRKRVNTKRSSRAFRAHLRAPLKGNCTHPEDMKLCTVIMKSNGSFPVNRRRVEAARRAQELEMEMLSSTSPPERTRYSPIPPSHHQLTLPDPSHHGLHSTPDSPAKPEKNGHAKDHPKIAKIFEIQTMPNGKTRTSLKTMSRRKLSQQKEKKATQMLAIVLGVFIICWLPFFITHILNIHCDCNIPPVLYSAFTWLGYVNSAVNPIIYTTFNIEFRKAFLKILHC
pKi: −log10 of the molar value.
MEASUREMENT NAME: pKi

Task: Name the reported pKi value associated with the compound CCCCCCOc1nsnc1C1=CCCN(C)C1
Output: < 5.00

====

target: HRH3 (Homo sapiens, UniProt Q9Y5N1); assay: cell-based; design: species or system HEK293; TRUPATH BRET2 G-protein dissociation; antagonist mode against agonist EC80; settings: N-Desmethyl Xanomeline, Assay=Gi2; agonist mode
Sequence (Q9Y5N1 whole entry): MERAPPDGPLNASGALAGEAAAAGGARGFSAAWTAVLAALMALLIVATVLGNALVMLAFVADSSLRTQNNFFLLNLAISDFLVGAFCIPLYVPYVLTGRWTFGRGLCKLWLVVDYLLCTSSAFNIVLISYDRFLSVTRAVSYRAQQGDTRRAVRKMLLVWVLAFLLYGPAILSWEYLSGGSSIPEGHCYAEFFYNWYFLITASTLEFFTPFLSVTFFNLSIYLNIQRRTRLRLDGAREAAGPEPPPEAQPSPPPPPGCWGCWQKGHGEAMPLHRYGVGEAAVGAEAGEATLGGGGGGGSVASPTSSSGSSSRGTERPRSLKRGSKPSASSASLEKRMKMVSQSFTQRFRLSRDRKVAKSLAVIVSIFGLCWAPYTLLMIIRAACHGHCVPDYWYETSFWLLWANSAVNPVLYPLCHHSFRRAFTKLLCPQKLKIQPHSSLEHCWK
MEASUREMENT NAME: EC50 (µM)
Express the result in µM but write the number alone.

Task: # returns recorded EC50 (system: HRH3 (Homo sapiens, UniProt Q9Y5N1)) for CCCCCCOc1nsnc1C1=CCCNC1 [N-desmethylxanomeline]
Output: 4.53

====

target: HTR1D (Homo sapiens); experiment: cell-based; parameters: species or system HEK293; TRUPATH BRET2 G-protein dissociation; antagonist mode against agonist EC80; details: N-Desmethyl Xanomeline, Assay=Gz; agonist mode
Sequence (P28221 whole entry): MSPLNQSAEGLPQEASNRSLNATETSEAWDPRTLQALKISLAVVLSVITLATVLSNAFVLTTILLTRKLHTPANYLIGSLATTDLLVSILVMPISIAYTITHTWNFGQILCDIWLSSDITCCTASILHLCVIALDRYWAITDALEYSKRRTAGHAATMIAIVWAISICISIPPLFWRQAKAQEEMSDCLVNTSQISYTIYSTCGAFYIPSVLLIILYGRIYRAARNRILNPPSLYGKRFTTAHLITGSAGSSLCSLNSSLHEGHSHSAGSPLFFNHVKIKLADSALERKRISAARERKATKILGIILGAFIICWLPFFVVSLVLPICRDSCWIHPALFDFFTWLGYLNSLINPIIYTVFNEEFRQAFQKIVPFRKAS
MEASUREMENT NAME: pEC50
Please report pEC50 as the negative decimal logarithm of the molar concentration, giving only the number.

Task: Give HTR1D (Homo sapiens) pEC50 for CCCCCCOc1nsnc1C1=CCCNC1 [N-desmethylxanomeline]
Output: 6.84
